The values you see were collected from PubChem BioAssay AID463173.

Tested on: DeltatarO mutant
assay.info: S. aureus survival, RN4220 and DeltatarO strains – OD600, teichoic acid synthesis inhibitors, primary screen (AID 463173)
measurement.parameters: S. aureus RN4220 wild type/DeltatarO growth, OD600, 18 h, active compounds read low, screened at 18.75 µg/mL (by protocol)
Hit rate of the full screen: of about 52,000 compounds, about 4,300 (8.3%) were called active. What follows is part of a selection rich in actives, with near analogues and random picks from the rest.
quantity.measured: survival (%)
Answers are plain numbers, in %.

Examples with answers:
- smiles.structure: "O=C(Cn1c(=O)n(-c2ccccc2Cl)c(=O)c2sc3ccccc3c21)NC1CCCCC1"
  unit.label: "%"
  survival: 109
- smiles.structure: "COc1ccc(CN2COc3ccc4c(-c5ccc(OC)cc5)cc(=O)oc4c3C2)cc1"
  unit.label: "%"
  survival: 65

// below: survival requested for another compound
c1ccc(Oc2ccc(N=NN3CCCCC3)cc2)cc1 tested on DeltatarO mutant gave survival: 74

---

Test system: DeltatarO mutant
assay.info: S. aureus survival, RN4220 and DeltatarO strains – OD600, teichoic acid synthesis inhibitors, primary screen (AID 463173)
measurement.parameters: S. aureus RN4220 wild type/DeltatarO growth, OD600, 18 h, screened at 18.75 µg/mL (by protocol)
The campaign covered roughly 52,000 compounds. About 4,300 (8.3%) were called active. Cut-off read from the data, not from the text of the source: active = survival mostly below about 52% (no sharp cut-off); inactive = mostly above about 56%. The sample as a whole holds a higher share of actives than the screen did.
Choose one outcome from this list and give only that: active, inactive

Example cases with answers are listed next.
- compound: "COc1ccc(Nc2oc(/C=C/c3ccc(OC)c(OC)c3)nc2C#N)cc1"
  test.system: "DeltatarO mutant"
  answer.label: "inactive"
- compound: "COc1cc(NC(=O)Cn2cnc3c2c(=O)n(C)c(=O)n3C)c(OC)cc1Cl"
  test.system: "DeltatarO mutant"
  answer.label: "inactive"
- compound: "COc1cc2[nH]c(=O)c(C(=O)NC3CCCC3)c(O)c2cc1OC"
  test.system: "DeltatarO mutant"
  answer.label: "inactive"
- compound: "COc1cc(/C=C/c2nc(C#N)c(NC3CCCCC3)o2)cc(OC)c1OC"
  test.system: "DeltatarO mutant"
  answer.label: "active"
- compound: "COc1ccc(C2C=C(c3ccccc3)Nc3nc(NC(=O)/C=C/c4ccccc4)nn32)cc1 (centres undefined)"
  test.system: "DeltatarO mutant"
  answer.label: "inactive"
- compound: "O=C1CCc2cc(S(=O)(=O)NC(C(=O)Nc3ccc(F)cc3)c3ccccc3)ccc2N1 (centres undefined)"
  test.system: "DeltatarO mutant"
  answer.label: "inactive"
- compound: "CCOc1ccc(Nc2oc(/C=C/c3cc(OC)c(OC)c(OC)c3)nc2C#N)cc1"
  test.system: "DeltatarO mutant"
  answer.label: "inactive"
- compound: "CCn1c(=NC(=O)c2ccc3c(c2)OCCO3)sc2c(C)ccc(OC)c21"
  test.system: "DeltatarO mutant"
  answer.label: "inactive"
- compound: "COc1cc(C)c(S(=O)(=O)N2CCCC(C)C2)cc1C (centres undefined)"
  test.system: "DeltatarO mutant"
  answer.label: "inactive"
- compound: "CN1C(=O)Cc2cc(S(=O)(=O)CCC(=O)Nc3ccc(OC(F)(F)F)cc3)ccc21"
  test.system: "DeltatarO mutant"
  answer.label: "inactive"

-- ask Per the assay record, what outcome was assigned to CCc1cnc2c(c1SCC(=O)NCc1ccc(F)cc1)c(=O)n(C)c(=O)n2C ?
-- reply inactive

-- ask What did the test return for Cc1ccccc1NC(=O)Nc1nnc(N(C)Cc2ccccc2)s1 ?
-- reply inactive

-- ask Status in this test for COC(=O)c1ccc(NC(=O)NC(C)c2c(-n3cccc3)sc(C)c2C)cc1 (centres undefined) ?
-- reply inactive

-- ask State the result this test recorded for CCOc1ccc(CNCCCSc2nnnn2C)cc1OC .
-- reply inactive

-- ask Fill in: this test's call for COc1ccc(CNC(=O)CCc2c(C)c3cc4c(C)c(C)oc4cc3oc2=O)cc1OC is ___
-- reply inactive

-- ask For this compound, state the assay outcome: CCOc1ccc(/C=C/c2nc(C#N)c(NC3CCCCC3)o2)cc1
-- reply inactive

---

System: DeltatarO mutant
assay.info: S. aureus survival, RN4220 and DeltatarO strains – OD600, teichoic acid synthesis inhibitors, primary screen (AID 463173)
measurement.parameters: S. aureus RN4220 wild type/DeltatarO growth, OD600, 18 h, screened at 18.75 µg/mL (by protocol)
Out of some 52,000 compounds screened, about 4,300 (8.3%) were called active. No stated cut-off is given here; in the data, active means survival mostly below about 52% (no sharp cut-off); inactive means mostly above about 56%. The full list was thinned out, with actives kept by preference.
// allowed return values: label 1 (active), label 0 (inactive)

Example results:
- molecule: "CCc1nnc(NC(=O)c2nc(S(C)(=O)=O)ncc2Cl)s1"
  test.system: "DeltatarO mutant"
  answer.label: "label 0"
- molecule: "CCOC(=O)c1oc2c(c1C)-c1nn(Cc3cccc(Cl)c3)cc1CC2"
  test.system: "DeltatarO mutant"
  answer.label: "label 0"
- molecule: "O=c1cc(O)c2ccccc2[nH]1"
  test.system: "DeltatarO mutant"
  answer.label: "label 0"
- molecule: "O=C(NCC(c1cccnc1)N1CCc2ccccc21)c1ccc(F)cc1 (centres undefined)"
  test.system: "DeltatarO mutant"
  answer.label: "label 0"
- molecule: "N#Cc1ccccc1NC(=O)C(=O)NCC(c1cccnc1)N1CCc2ccccc21 (centres undefined)"
  test.system: "DeltatarO mutant"
  answer.label: "label 0"

-- ask Given CCN(Cc1ccccc1)C(=O)Cn1c(=O)cc(C)c2c(C)nn(-c3cccc(F)c3)c21 , state the outcome it received in this test.
-- reply label 0

-- ask State the result this test recorded for COCCCNC(=O)c1oc2c(c1C)-c1nn(Cc3ccccc3Cl)cc1CC2 .
-- reply label 0

-- ask For CC(C)C(OC(=O)c1cccs1)C(=O)NC1CCCC1 (centres undefined) , which call appears in the assay record?
-- reply label 0

-- ask I'd appreciate the recorded outcome for COc1ccc(CCNC(=O)c2nc(SCc3ccccc3F)ncc2Cl)cc1OC from this test.
-- reply label 0

-- ask Just curious, what result did CC(C)c1nnc(NC(=O)c2nc(SCc3ccc(F)cc3)ncc2Cl)s1 get here?
-- reply label 1

-- ask I would be grateful if you could indicate the recorded call for COc1ccc(NC(=O)c2oc3c(c2C)-c2nn(Cc4ccccc4Cl)cc2CC3)cc1OC .
-- reply label 1

-- ask Please state the recorded outcome for this molecule: Cc1ccccc1CS(=O)(=O)c1ncc(Cl)c(C(=O)Nc2nnc(C(C)C)s2)n1
-- reply label 1

-- ask Could you check what this test reported for O=C(Cn1c(=O)c(C(F)(F)F)nc2ccccc21)Nc1cccc(Br)c1 ?
-- reply label 0

-- ask Which outcome did this test record for the molecule Cn1c(=O)c2c(nc(CN3CCN(c4ccccc4F)CC3)n2Cc2ccccc2F)n(C)c1=O ?
-- reply label 0

---

System: DeltatarO mutant
assay.info: S. aureus survival, RN4220 and DeltatarO strains – OD600, teichoic acid synthesis inhibitors, primary screen (AID 463173)
measurement.parameters: S. aureus RN4220 wild type/DeltatarO growth, OD600, 18 h, active compounds read low, screened at 18.75 µg/mL (by protocol)
About 4,300 (8.3%) of roughly 52,000 compounds were called active. Many of the other results were omitted from the sample, so actives are more common in it than they were.
quantity.measured: survival

- smiles.structure: "O=C(/C=C/c1ccccc1)N1CCN(Cc2cc(=O)n3nc(-c4ccccc4)sc3n2)CC1"
  survival: "90% (inactive)"

Provide each entry's survival from the list below.
1. CCN(CC)S(=O)(=O)c1ccc2c(c1)nc(CN(C)C(=O)c1cccc(Cl)c1)n2C
2. COC(=O)c1sccc1S(=O)(=O)N(CC(=O)NCc1ccccc1)c1ccc(C)cc1

-- reply
1. 71% (inactive)
2. 95% (inactive)

---

Tested on: DeltatarO mutant
assay.info: S. aureus survival, RN4220 and DeltatarO strains – OD600, teichoic acid synthesis inhibitors, primary screen (AID 463173)
measurement.parameters: S. aureus RN4220 wild type/DeltatarO growth, OD600, 18 h, active compounds read low, screened at 18.75 µg/mL (by protocol)
Out of some 52,000 compounds screened, about 4,300 (8.3%) were called active. The entries come from a sample that favours actives as a whole.
quantity.measured: survival (%)
Numbers only, in %.

- molecule: "CC(C)c1nc2ccc(C(=O)NCc3ccc(F)cc3)cc2o1"
  survival / %: 78
- molecule: "O=C(NCc1ccc(F)cc1)C(=O)Nc1ccc2nc3n(c(=O)c2c1)CCCCC3"
  survival / %: 94
- molecule: "c1ccc(-c2nc(-c3cccnc3)no2)cc1"
  survival / %: 98

Now, please, on to the next molecule.
Consider CCOc1ccc(CN2C(=O)c3ccccc3C2C(=O)NCCc2ccc(OC)c(OC)c2)cc1 (centres undefined) . Its measured survival is 88

---

Test system: DeltatarO mutant
assay.info: S. aureus survival, RN4220 and DeltatarO strains – OD600, teichoic acid synthesis inhibitors, primary screen (AID 463173)
measurement.parameters: S. aureus RN4220 wild type/DeltatarO growth, OD600, 18 h, screened at 18.75 µg/mL (by protocol)
The campaign covered roughly 52,000 compounds. About 4,300 (8.3%) were called active. No stated cut-off is given here; in the data, active means survival mostly below about 52% (no sharp cut-off); inactive means mostly above about 56%. Only a selection was taken, and actives are over-represented in it overall.
Return exactly one item of yes = active, no = inactive

Worked examples follow.
- compound: "COc1ccc(Nc2nc(N)nc(N)c2S(=O)(=O)c2ccccc2)cc1"
  answer.label: "no"
- compound: "CCc1ccc(C2C(C(=O)Nc3ccccc3OC)=C(C)Nc3nc(SCc4ccccc4)nn32)cc1 (stereo not drawn)"
  answer.label: "no"
- compound: "Cc1ccc(-n2ncc3c(NCc4ccccc4)ncnc32)cc1C"
  answer.label: "no"
- compound: "Cc1ccc(-n2ncc3c(NCCC4=CCCCC4)ncnc32)cc1"
  answer.label: "yes"
- compound: "CC(=O)c1ccc(NC(=O)c2cc(C3CC3)nc3c2c(C)nn3-c2ccc(C)cc2)cc1"
  answer.label: "yes"

-- ask Give the logged outcome of this assay for the following compound: O=c1c2oc3ccccc3c2n(Cc2cccc(F)c2)c(=O)n1Cc1ccco1
-- reply no

-- ask Lab log entry: c1ccc(CN2CCCN(c3nc4c(c(NCCN5CCOCC5)n3)CCCC4)CC2)cc1 — outcome as called in the assay?
-- reply no

-- ask Give the logged outcome of this assay for the following compound: COc1ccc(F)cc1S(=O)(=O)NCCc1sc2nc(-c3ccc(F)cc3)nn2c1C
-- reply no

-- ask How did this test come out for COc1ccc(-c2c(C)c3cc(OC(=O)N4CCOCC4)ccc3oc2=O)cc1OC ?
-- reply yes

-- ask // param item: Cc1ccc2cccc(NC(=O)c3ccc(-c4ccc(Cl)cc4Cl)o3)c2n1 ; yields the recorded call
-- reply no

-- ask What was the test verdict on O=C(Nc1cccc2cccnc12)c1ccc(-c2cccc(Cl)c2)o1 ?
-- reply yes

-- ask Lab log entry: CCCNS(=O)(=O)c1cc(-c2nnc3c4ccccc4c(C)nn23)ccc1OC — outcome as called in the assay?
-- reply no

-- ask Kindly provide the recorded test outcome for the following compound: O=C(NC(CO)C(=O)O)c1ccncc1 (stereo not drawn)
-- reply no

-- ask What was the test verdict on CCCS(=O)(=O)NCCc1sc2nc(-c3ccc(Cl)cc3)nn2c1C ?
-- reply no

-- ask Field: outcome | Entry: Cc1ccc2cccc(NC(=O)c3ccc(-c4ccc(Br)cc4)o3)c2n1
-- reply yes

-- ask Tell me the recorded outcome of this test for CCOc1ccc(-c2nonc2NC(=O)c2oc3cc(C)c(C)cc3c2C)cc1OCC .
-- reply yes

-- ask Check the results log: what was the call for NC(=O)CN1c2cccc3cccc(c23)S1(=O)=O ?
-- reply no

-- ask Record lookup: outcome of this test for Cc1ccc2cccc(NC(=O)c3ccc(-c4cccc(Cl)c4)o3)c2n1 ?
-- reply yes
